test system: LOX IMVI melanoma; experiment: NCI-60 one-dose screen, 48 h (100 = growth as untreated, 0 = no growth, -100 = all killed); settings: 10 µM unless noted
About 83,000 compounds went through this panel and 20% of them were active in at least one assay; those are over-represented in the sample as a whole.
What growth was measured for each of the following?
API: value field is a number in %; no unit string.

### Prompt Missing value: growth, LOX IMVI melanoma, entry "COc1cc(/C=C2\CN(C(=O)CCN3CCC(=NO)CC3)C/C(=C\c3cc(OC)c(OC)c(OC)c3)C2=O)cc(OC)c1OC" . Fill in?
### Response -85.2

### Prompt Missing value: growth, LOX IMVI melanoma, entry "COc1ccc(C(=O)/C=C/c2c[n+](=O)c3ccc(F)cc3n2[O-])cc1" . Fill in?
### Response 94.2

### Prompt Missing value: growth, LOX IMVI melanoma, entry "O=[N+]([O-])c1cccc(-c2nc3sccn3c2-c2ccnc(NCCCNS(=O)(=O)c3cccc(F)c3)n2)c1" . Fill in?
### Response -17.6

### Prompt Missing value: growth, LOX IMVI melanoma, entry "O=C(COCc1c(-c2ccccc2)no[n+]1[O-])Nc1ccc(C(=O)/C=C/c2ccc3c(c2)OCO3)cc1" . Fill in?
### Response 68.3

### Prompt Missing value: growth, LOX IMVI melanoma, entry "COc1ccc(C/C(C)=C(\c2ccc(Cl)cc2)c2ccc(OCCN3CCCCCC3)cc2)cc1" . Fill in?
### Response 90

### Prompt Missing value: growth, LOX IMVI melanoma, entry "Cc1ccc2c(c1)C(=O)c1c-2c(OCCCN(C)C)nc2ccccc12" . Fill in?
### Response -71.9

### Prompt Missing value: growth, LOX IMVI melanoma, entry "COc1cnc2c(c1)C(=O)c1c-2n(CCCN2CCNCC2)c(=O)c2cc([N+](=O)[O-])ccc12" . Fill in?
### Response -86.5

### Prompt Missing value: growth, LOX IMVI melanoma, entry "COc1ccc(/C(=C/c2ccc3ccccc3c2)c2nn[nH]n2)cc1OC" . Fill in?
### Response 37.6

### Prompt Missing value: growth, LOX IMVI melanoma, entry "O=C(O)c1cn(C2CC2)c2cc(N3CCN(Cc4nc5c(cnn5-c5ccc([N+](=O)[O-])cc5)c(=O)[nH]4)CC3)c(F)cc2c1=O" . Fill in?
### Response 101

### Prompt Missing value: growth, LOX IMVI melanoma, entry "COc1ccc(/C=C/C(=O)c2ccc(NC(=O)c3cc4cc5ccccc5nc4s3)cc2)cc1OC" . Fill in?
### Response 94

### Prompt Missing value: growth, LOX IMVI melanoma, entry "C/C(=C(/c1ccc(O)cc1)c1ccc(Cl)cc1)c1ccccc1" . Fill in?
### Response -95.7

### Prompt Missing value: growth, LOX IMVI melanoma, entry "O=C1C(=O)N(CCCCn2cc(CO)nn2)c2ccccc21" . Fill in?
### Response 92.1

### Prompt Missing value: growth, LOX IMVI melanoma, entry "Cc1cc(Nc2nc(N3CCN(C)CC3)nc3ccccc23)n[nH]1" . Fill in?
### Response 73

### Prompt Missing value: growth, LOX IMVI melanoma, entry "Cc1cc(Nc2nc(N3CCOCC3)nc3ccccc23)n[nH]1" . Fill in?
### Response 63.3

### Prompt Missing value: growth, LOX IMVI melanoma, entry "CCN(C(=O)CN1CCN(c2cc3c(cc2F)c(=O)c(C(=O)O)cn3CC)CC1)c1nc(-c2ccccc2)cs1" . Fill in?
### Response -35

### Prompt Missing value: growth, LOX IMVI melanoma, entry CCOC(=O)C(CC)n1c(=O)c2cc(OC)c(OC)cc2c2cnc3[nH]ccc3c21 (stereo not given) . Fill in?
### Response 44.8

### Prompt Missing value: growth, LOX IMVI melanoma, entry "CCCCCCCCCCNC(=O)CCl" . Fill in?
### Response 50.9

### Prompt Missing value: growth, LOX IMVI melanoma, entry "CSc1nc2sc3c(c2c(=O)n1-c1ccc(C(C)C)cc1)CCC(=O)C3" . Fill in?
### Response -39.6

### Prompt Missing value: growth, LOX IMVI melanoma, entry "CCCCNP1(NCCCC)=NP(NCCCC)(NCCCC)=NP(NCCCC)(NCCCC)=NP(NCCCC)(NCCCC)=N1" . Fill in?
### Response 1.62

### Prompt Missing value: growth, LOX IMVI melanoma, entry "COc1cc(/C=N/N(C)C)ccc1O" . Fill in?
### Response 108
